- Tested on: RS4;11 cells
- assay-procedure: RS4;11 cell viability assay (CellTiter Glo);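 further: acute lymphoblastic leukemia line RS4,11, EC50 derived from percentage of viable cells after treatment relative to untreated controls, cell killing taken as a measure of Bcl-2 inhibition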
- Type: cell-based, human
- condition: Homo sapiens, RS4-11, 48 h, 50,000 cells per well, 10% human serum, 48 hours; read-out: RS4; 11 EC50 Values
readout-type: EC50
Answer by giving the amount and then stating its unit.

Give EC50 for this entry on RS4;11 cells: CC1(C)CCC(CN2CCN(c3ccc(C(=O)NS(=O)(=O)c4ccc(NC5CCN(C6COC6)CC5)c([N+](=O)[O-])c4)c(Oc4cnc5[nH]ccc5c4)c3)CC2)=C(c2ccc(Cl)cc2)C1 [Example 139] 16.8 nM

Give EC50 for this entry on RS4;11 cells: O=C(NS(=O)(=O)c1ccc(NCC2CCOCC2)c([N+](=O)[O-])c1)c1ccc(N2CCN(CC3=C(c4ccc(Cl)cc4)CC4(CC3)CC4)CC2)cc1Oc1cnc2[nH]ccc2c1 [Example 328] 9.88 nM

Give EC50 for this entry on RS4;11 cells: CC1(C)CCC(CN2CCN(c3ccc(C(=O)NS(=O)(=O)c4ccc(N[C@@H]5CCN(CC(F)F)C5)c([N+](=O)[O-])c4)c(Oc4cnc5[nH]ccc5c4)c3)CC2)=C(c2ccc(Cl)cc2)C1 [Example 180] 11.8 nM

Give EC50 for this entry on RS4;11 cells: CCN(C)C(=O)N1CCOC(CNc2ccc(S(=O)(=O)NC(=O)c3ccc(N4CCN(CC5=C(c6ccc(Cl)cc6)CC(C)(C)CC5)CC4)cc3Oc3cnc4[nH]ccc4c3)cc2[N+](=O)[O-])C1 (stereo not shown) [Example 318] 11.6 nM
